assayed-system: UniProt:P00734
test-details: Inhibition of human thrombin assessed as equilibrium association constant at 50 to 1000 uM by BIAcore analysis

molecule | Ka
Oc1cc(O)c2c(c1)O[C@H](c1ccc(O)c(O)c1)[C@H](O)C2 | 1.92 ×10² /M
Oc1cc(O)c2c(c1)O[C@H](c1ccc(O)c(O)c1)[C@@H](O)C2 | 2.03 ×10⁴ /M
COc1cc(C2Oc3cc([C@H]4Oc5cc(O)cc(O)c5C(=O)[C@@H]4O)ccc3OC2CO)ccc1O (stereo not given in full) [SILIBININ] | 5.39 ×10⁴ /M
OC[C@H]1O[C@@H](Oc2cc3c(O[C@@H]4O[C@H](CO)[C@@H](O)[C@H](O)[C@H]4O)cc(O)cc3[o+]c2-c2ccc(O)c(O)c2)[C@H](O)[C@@H](O)[C@@H]1O | 1.15 ×10² /M
O=c1c(O)c(-c2ccc(O)c(O)c2)oc2cc(O)cc(O)c12 [QUERCETIN] | 2.59 ×10⁷ /M
